System: morningglory
Method Summary: Test A pre-/postemergence herbicide test
Format: in vivo, Ipomoea spp.
Experimental Parameters: Postemergence, 500 g ai/ha; 0 to 100 scale, 0 no effect, 100 complete control
Measured Quantity: Morningglory plant response rating

>>> print(df.to_string())
                                   compound  target_or_system                   measured_quantity  reported_measurement
0  Cc1nn(C(C)(C)C)cc1C(=O)Nc1cccc(OC(C)C)c1 [Compound 189]      morningglory  Morningglory plant response rating                    10
1  CCN(CC)C(=O)c1ccnc(NC(=O)c2cc(C(C)(C)C)nn2CC)c1 [Compound 153]      morningglory  Morningglory plant response rating                    35
2  CCNC(=O)c1ccc(F)c(NC(=O)C2CC(C(C)(C)C)=NN2CC)c1 (racemic) [Compound 269]      morningglory  Morningglory plant response rating                    20
